Hey, just so you know, these numbers are from the RNAGym collection of RNA variant scans (doi:10.1073/pnas.2313332121).

B1: TPR 5TU (parent)
chain: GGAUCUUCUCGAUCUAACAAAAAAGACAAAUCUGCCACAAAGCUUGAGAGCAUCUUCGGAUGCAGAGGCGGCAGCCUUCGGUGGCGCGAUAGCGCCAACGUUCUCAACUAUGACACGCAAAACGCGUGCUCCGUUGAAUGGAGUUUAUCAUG

variants of: B1; assay: polymerase ribozyme fitness, log enrichment relative to wild type (log ratio); higher = more active; in vitro selection for triplet polymerase activity
This sample holds only a part of the variants without activity.
Readout Kind: polymerase ribozyme fitness (log ratio)
Give bare numbers.

Q: Given the entry U144C U145C , report its measured polymerase ribozyme fitness (log ratio).
Ans: -0.39

Q: Using the record for G34A U101A , report its polymerase ribozyme fitness (log ratio).
Ans: -2.82

Q: Give the measured polymerase ribozyme fitness (log ratio) of `G83U` .
Ans: -0.478

Q: What value of polymerase ribozyme fitness (log ratio) has been reported for the following variant? G42A G92C
Ans: -3.91

Q: Entry under review: C38A G94A . Reported polymerase ribozyme fitness (log ratio)?
Ans: -0.134

Q: What polymerase ribozyme fitness (log ratio) value was documented for this variant, A40U C51U G83A ?
Ans: -0.935

Query variant follows.
Q: # lookup: polymerase ribozyme fitness (log ratio) of G84A U102G A122U
Ans: -2.74
